Tested on: IL-6
procedure details: IL-6 inhibition in LPS-stimulated THP-1 monocytes (HTRF)
Assay type: cell-based, human
measurement conditions: Homo sapiens; THP-1 cells, 500 ng/mL LPS, 22 h, HTRF IL-6 readout; 10-point dose-response from 10 μM
pEC50: −log10 of the molar value.
measured quantity: pEC50

Worked set:
1. O=C(Nc1cncc(-c2cnc3[nH]nc(-c4cc5c(-c6ccncc6)cccc5[nH]4)c3c2)c1)C1CCCCC1
6.23
2. CCNCc1cncc(-c2cnc3[nH]nc(-c4cc5c(-c6ccccn6)cccc5[nH]4)c3c2)c1
6.71
3. CC(C)(C)C(=O)Nc1cncc(-c2cnc3[nH]nc(-c4cc5c(-c6cccnc6)cccc5[nH]4)c3c2)c1
7.06
4. c1cncc(-c2cnc3[nH]nc(-c4cc5ccccc5[nH]4)c3c2)c1
7.72
5. CN(C)c1cncc(-c2cnc3[nH]nc(-c4cc5c(-c6cc(F)cc(CNS(C)(=O)=O)c6)cccc5[nH]4)c3c2)c1
5.84

A = Cc1ncc(-c2cnc3[nH]nc(-c4cc5ncccc5[nH]4)c3c2)n1C
B = Fc1ccccc1-c1cccc2[nH]c(-c3n[nH]c4ncc(C5CCNCC5)cc34)cc12
Prompt line: Consider A and B . Which of these has its pEC50 at a higher number? // caller expects the label of the chosen entry
Response line: B

a = CN(C)CCNc1cc(F)cc(-c2cccc3[nH]c(-c4n[nH]c5ncc(-c6cncc(N)c6)cc45)cc23)c1
b = CCCC(=O)Nc1cncc(-c2cnc3[nH]nc(-c4cc5c(-c6ccncc6)cccc5[nH]4)c3c2)c1
c = Cc1ccncc1-c1cnc2[nH]nc(-c3cc4c(N5CCN(C)CC5)cccc4[nH]3)c2c1
d = O=C(Nc1cncc(-c2cnc3[nH]nc(-c4cc5c(-c6ccccn6)cccc5[nH]4)c3c2)c1)c1ccccc1
e = O=C(Nc1cncc(-c2cnc3[nH]nc(-c4cc5c(-c6ccccc6F)cccc5[nH]4)c3c2)c1)C1CCCC1
Prompt line: Please list these compounds in decreasing order of pEC50. Note for the reader: the ranking is given by listing the labels in the order requested.
Response line: d, b, a, c, e

1 = Cc1ccncc1-c1cnc2[nH]nc(-c3cc4c(-c5ccncc5)cccc4[nH]3)c2c1
2 = CS(=O)(=O)NCc1cc(F)cc(-c2cccc3[nH]c(-c4n[nH]c5ncc(-c6cncc(NC(=O)C7CC7)c6)cc45)cc23)c1
3 = O=C(Nc1cncc(-c2cnc3[nH]nc(-c4cc5c(N6CCCCC6)cccc5[nH]4)c3c2)c1)C1CC1
Prompt line: Reorder the items by pEC50, least to greatest. Output spec: a listing of the labels in the requested order.
Response line: 3, 2, 1

a = CC(C)(C)CC(=O)Nc1cncc(-c2cnc3[nH]nc(-c4cc5c(-c6ccccn6)cccc5[nH]4)c3c2)c1
b = CN(C)CCOc1cncc(-c2cnc3[nH]nc(-c4cc5c(-c6cccnc6)cccc5[nH]4)c3c2)c1
Prompt line: Compare pEC50: is it lower for a or for b ? Mark your answer with the label of the selected entry.
Response line: b
(b: 5.70, a: 6.38)

1 = c1ccc(COc2cncc(-c3cnc4[nH]nc(-c5cc6ncccc6[nH]5)c4c3)c2)cc1
2 = c1ccc2[nH]c(-c3n[nH]c4ncc(-c5cncc(CN6CCCC6)c5)cc34)cc2c1
Prompt line: Higher pEC50: 1 or 2 ? The response must carry the label of the picked entry.
Response line: 1
(1: 6.77, 2: 6.09)

P = CN1CCN(c2cccc3[nH]c(-c4n[nH]c5ncc(-c6cncc(CN7CCCCC7)c6)cc45)cc23)CC1
Q = CCC(=O)Nc1cncc(-c2cnc3[nH]nc(-c4cc5c(N6CCCCC6)cccc5[nH]4)c3c2)c1
Prompt line: Of the pair P and Q , name the member with the lesser recorded pEC50. Indicate which entry you chose by stating its label.
Response line: Q

a = O=C(Nc1cncc(-c2cnc3[nH]nc(-c4cc5ccccc5[nH]4)c3c2)c1)C1CCC1
b = CC(C)(C)CC(=O)Nc1cncc(-c2cnc3[nH]nc(-c4cc5ccccc5[nH]4)c3c2)c1
Prompt line: Given the listed records, identify the one among a and b with higher pEC50. The response must carry the label of the picked entry.
Response line: a
